Tested on: D283 Med
Assay: cells
Settings: Homo sapiens, 72 h
Lab note: compare IC50 with 70 nM, writing YES if less and NO if equal or more.

* Cc1sc2c(c1C)C(c1ccc(Cl)cc1)=N[C@@H](CC(=O)NCC(=O)O)c1nnc(C)n1-2 | NO
* Cc1sc2c(c1C)C(c1ccc(Cl)cc1)=N[C@@H](CC(=O)OC(C)(C)C)c1nnc(C)n1-2 | YES
* COC(=O)CNC(=O)C[C@@H]1N=C(c2ccc(Cl)cc2)c2c(sc(C)c2C)-n2c(C)nnc21 | NO
* Cc1sc2c(c1C)C(c1ccc(Cl)cc1)=N[C@@H](CC(=O)NCCO)c1nnc(C)n1-2 | NO
* COC(=O)[C@H](Cc1c[nH]cn1)NC(=O)C[C@@H]1N=C(c2ccc(Cl)cc2)c2c(sc(C)c2C)-n2c(C)nnc21 | NO
* Cc1sc2c(c1C)C(c1ccc(Cl)cc1)=N[C@@H](CC(=O)Nc1ccc(O)cc1)c1nnc(C)n1-2 [BIRABRESIB] | YES
* Cc1sc2c(c1C)C(c1ccc(Cl)cc1)=N[C@@H](CC(=O)NCc1cn(C)cn1)c1nnc(C)n1-2 | NO
* Cc1sc2c(c1C)C(c1ccc(Cl)cc1)=N[C@@H](CC(=O)NCc1ncco1)c1nnc(C)n1-2 | YES
